# target-of-assay: T1, TNFR1 (Homo sapiens, UniProt P19438)
# T1 chain: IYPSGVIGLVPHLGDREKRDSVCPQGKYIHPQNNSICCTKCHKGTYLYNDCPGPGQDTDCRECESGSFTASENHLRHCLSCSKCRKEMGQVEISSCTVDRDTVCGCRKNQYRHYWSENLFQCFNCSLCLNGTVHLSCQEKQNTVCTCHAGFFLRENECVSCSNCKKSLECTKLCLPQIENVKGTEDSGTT
# assay-procedure: yeast display SC50
Binary classification by apparent Kd (screen), with 0.5 nM as an inclusive lower bound for fulfilled; all other cases are not fulfilled.

Please review the following examples before continuing.
E81K (designed binder) MTLQELLREEALRRAEAEAFRYALELLAEKFPEQKEYLLDLAEEIESQIRSLSGVDVEDVRKFLDKEWAWVKELLAEHPAKLAEVEAARAARLAELRAEVEAKVAA : fulfilled
M1P (designed binder) PTLQELLREEALRRAEAEAFRYALELLAEKFPEQKEYLLDLAEEIESQIRSLSGVDVEDVRKFLDKEWAWVKELLAEHPAELAEVEAARAARLAELRAEVEAKVAA : not fulfilled
G54W (designed binder) MTLQELLREEALRRAEAEAFRYALELLAEKFPEQKEYLLDLAEEIESQIRSLSWVDVEDVRKFLDKEWAWVKELLAEHPAELAEVEAARAARLAELRAEVEAKVAA : fulfilled
E95W (designed binder) MTLQELLREEALRRAEAEAFRYALELLAEKFPEQKEYLLDLAEEIESQIRSLSGVDVEDVRKFLDKEWAWVKELLAEHPAELAEVEAARAARLAWLRAEVEAKVAA : not fulfilled
A87G (designed binder) MTLQELLREEALRRAEAEAFRYALELLAEKFPEQKEYLLDLAEEIESQIRSLSGVDVEDVRKFLDKEWAWVKELLAEHPAELAEVEGARAARLAELRAEVEAKVAA : fulfilled

Task: Can A105I (designed binder) MTLQELLREEALRRAEAEAFRYALELLAEKFPEQKEYLLDLAEEIESQIRSLSGVDVEDVRKFLDKEWAWVKELLAEHPAELAEVEAARAARLAELRAEVEAKVIA be said to have apparent Kd (screen) at or above 0.5 nM?
Output: fulfilled

Task: Can A17G (designed binder) MTLQELLREEALRRAEGEAFRYALELLAEKFPEQKEYLLDLAEEIESQIRSLSGVDVEDVRKFLDKEWAWVKELLAEHPAELAEVEAARAARLAELRAEVEAKVAA be said to have apparent Kd (screen) at or above 0.5 nM?
Output: fulfilled

Task: Can L27D (designed binder) MTLQELLREEALRRAEAEAFRYALELDAEKFPEQKEYLLDLAEEIESQIRSLSGVDVEDVRKFLDKEWAWVKELLAEHPAELAEVEAARAARLAELRAEVEAKVAA be said to have apparent Kd (screen) at or above 0.5 nM?
Output: not fulfilled

Task: Can L3E (designed binder) MTEQELLREEALRRAEAEAFRYALELLAEKFPEQKEYLLDLAEEIESQIRSLSGVDVEDVRKFLDKEWAWVKELLAEHPAELAEVEAARAARLAELRAEVEAKVAA be said to have apparent Kd (screen) at or above 0.5 nM?
Output: fulfilled

Task: Can D40R (designed binder) MTLQELLREEALRRAEAEAFRYALELLAEKFPEQKEYLLRLAEEIESQIRSLSGVDVEDVRKFLDKEWAWVKELLAEHPAELAEVEAARAARLAELRAEVEAKVAA be said to have apparent Kd (screen) at or above 0.5 nM?
Output: fulfilled

Task: Can F63P (designed binder) MTLQELLREEALRRAEAEAFRYALELLAEKFPEQKEYLLDLAEEIESQIRSLSGVDVEDVRKPLDKEWAWVKELLAEHPAELAEVEAARAARLAELRAEVEAKVAA be said to have apparent Kd (screen) at or above 0.5 nM?
Output: fulfilled
